assaySystem: mGluR2 receptor (metabotropic glutamate receptor 2) (Homo sapiens)
Construct: expressed in transfected cells
measurementDescription: mGluR2 Potentiator Screen, FLIPR, EC10-EC20 glutamate challenge
Assay type: cell-based
conditionDetails: mGluR2 potentiator screen, FLIPR, EC10-EC20 glutamate challenge
parameter: EC50 (nM)

Past entries and their recorded results:
compound | resultUnit | EC50
CC(C)Oc1ccc(C2CCN(Cc3nc4ncccc4n3C)CC2)c(Cl)c1 | nM | 65.7
COc1cc(F)ccc1[C@H]1CCN(Cc2nc3cnccc3n2C)C[C@H]1C (single isomer, unassigned) [compound 260] | nM | 125
C[C@@H]1CN(Cc2nc3ncccc3n2C)CC[C@@H]1c1ccc(C(F)(F)F)c(Cl)c1 (relative stereo) | nM | 101
Cc1cc(OC(F)(F)F)ccc1C1CCN(Cc2nc3ncccc3n2C)CC1 | nM | 50.7
C[C@@H]1CN(Cc2nc3cnccc3n2C)CC[C@@H]1c1ccc(OC(F)(F)F)cc1Cl (single isomer, unassigned) [compound 253] | nM | 1820

P: C[C@@H]1CN(Cc2nc3ncccc3n2C)CC[C@@H]1c1ccc(F)cc1C(F)(F)F (single isomer, unassigned) [compound 251]
Q: COc1cc(F)ccc1[C@H]1CCN(Cc2nc3cnccc3n2C)C[C@H]1C (single isomer, unassigned) [compound 259]
R: C[C@@H]1CN(Cc2nc3ncccc3n2C)CC[C@@H]1c1ccc(OC(F)F)cc1Cl (single isomer, unassigned) [compound 244]
Query: Place the items in sequence of falling EC50. # respond with the labels, arranged in the requested order
Response: Q, R, P
(Q: 1460 nM, R: 36 nM, P: 21 nM)

====

assaySystem: mGluR2 receptor (metabotropic glutamate receptor 2) (Homo sapiens, UniProt Q14416)
Construct: expressed in transfected cells
Sequence (Q14416 19-872, species assumed): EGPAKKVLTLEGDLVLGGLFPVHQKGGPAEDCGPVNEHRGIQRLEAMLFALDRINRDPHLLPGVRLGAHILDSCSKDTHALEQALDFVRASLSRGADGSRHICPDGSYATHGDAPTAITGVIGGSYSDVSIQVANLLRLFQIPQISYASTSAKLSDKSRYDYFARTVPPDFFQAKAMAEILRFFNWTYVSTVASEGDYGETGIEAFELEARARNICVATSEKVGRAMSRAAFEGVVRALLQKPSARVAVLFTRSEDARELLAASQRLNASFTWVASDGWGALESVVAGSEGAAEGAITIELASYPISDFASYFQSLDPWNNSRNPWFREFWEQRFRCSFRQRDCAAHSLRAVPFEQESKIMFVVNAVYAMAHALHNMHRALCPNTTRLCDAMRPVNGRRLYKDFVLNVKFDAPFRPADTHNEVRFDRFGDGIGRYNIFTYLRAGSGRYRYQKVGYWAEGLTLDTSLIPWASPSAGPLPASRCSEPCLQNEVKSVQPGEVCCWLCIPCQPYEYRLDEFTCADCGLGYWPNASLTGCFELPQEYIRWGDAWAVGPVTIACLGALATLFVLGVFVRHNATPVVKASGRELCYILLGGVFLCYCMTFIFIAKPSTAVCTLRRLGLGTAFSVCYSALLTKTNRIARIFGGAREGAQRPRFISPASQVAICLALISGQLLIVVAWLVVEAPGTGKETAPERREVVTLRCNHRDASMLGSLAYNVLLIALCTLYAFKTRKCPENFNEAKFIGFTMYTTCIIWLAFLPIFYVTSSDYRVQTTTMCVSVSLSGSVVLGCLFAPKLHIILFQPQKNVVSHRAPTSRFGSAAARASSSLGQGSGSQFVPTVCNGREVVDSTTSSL
measurementDescription: mGluR2 Potentiator Screen, FLIPR, EC10-EC20 glutamate challenge
Assay type: cell-based
conditionDetails: mGluR2 potentiator screen, FLIPR, EC10-EC20 glutamate challenge
parameter: EC50 (nM)

Past entries and their recorded results:
compound | EC50 [nM]
Cc1cc(C(F)(F)F)ccc1C1CCN(Cc2nc3ncccc3n2C)CC1 | 51.1
Cn1c(CN2CCC(c3ccc(OC(F)F)cc3Cl)CC2)nc2ncccc21 | 54.9
Cn1c(CN2CCC(c3ccc(OC(F)(F)F)cc3)CC2)nc2cnccc21 | 160
C[C@@H]1CN(Cc2nc3cnccc3n2C)CC[C@@H]1c1ccc(F)cc1OC(F)F (relative stereo) | 96.5

1: Cn1c(CN2CCC(c3ccc(OC(F)(F)F)cc3)CC2)nc2ncccc21
2: COc1cc(C2CCN(Cc3nc4cnccc4n3C)CC2)ccc1C(F)(F)F
Query: Pick one: 1 or 2 . Which has the bigger EC50 number? Bench note: the answer is the label of the chosen record.
Response: 2
(2: 245 nM, 1: 84.5 nM)

====

assaySystem: mGluR2 receptor (metabotropic glutamate receptor 2) (Homo sapiens, UniProt Q14416)
Construct: expressed in transfected cells
measurementDescription: mGluR2 Potentiator Screen, FLIPR, EC10-EC20 glutamate challenge
Assay type: cell-based
pEC50: −log10 of the molar value.
parameter: pEC50

Past entries and their recorded results:
compound | assaySystem | reported
Cn1c(CN2CCC(c3ccc(Cl)cc3F)CC2)nc2cnccc21 | mGluR2 receptor (metabotropic glutamate receptor 2) (Homo sapiens, UniProt Q14416) | 7.09
Cn1c(CN2CCC(c3ccc(F)cc3F)CC2)nc2cccnc21 | mGluR2 receptor (metabotropic glutamate receptor 2) (Homo sapiens, UniProt Q14416) | 6.70

A: Cn1c(CN2CCC(c3ccc(Cl)cc3F)CC2)nc2ncccc21
B: C[C@@H]1CN(Cc2nc3cnccc3n2C)CC[C@@H]1c1ccc(Cl)cc1F (single isomer, unassigned) [compound 140]
Query: Pick one: A or B . Which has the bigger pEC50 number? Bench note: the answer is the label of the chosen record.
Response: A

====

assaySystem: mGluR2 receptor (metabotropic glutamate receptor 2) (Homo sapiens, UniProt Q14416)
Construct: expressed in transfected cells
measurementDescription: mGluR2 Potentiator Screen, FLIPR, EC10-EC20 glutamate challenge
Type: cell-based
parameter: EC50 (nM)

Past entries and their recorded results:
compound | parameter | reported
Cn1c(CN2CCC(c3ccc(F)c(Cl)c3)CC2)nc2cnccc21 | EC50 | 482
Cc1cc(NC(=O)c2cccc(C3CCN(Cc4nc5ncccc5n4C)CC3)c2)n[nH]1 | EC50 | 3660
COc1cc(C(F)(F)F)ccc1C1CCN(Cc2nc3ncccc3n2C)CC1 | EC50 | 11.1

1: C[C@@H]1CN(Cc2nc3ncccc3n2C)CC[C@@H]1c1ccc(F)cc1F (relative stereo)
2: C[C@@H]1CN(Cc2nc3cnccc3n2C)CC[C@@H]1c1ccc(OC(F)(F)F)cc1 (relative stereo) [compound 158]
Query: Just tell me: smaller EC50 value, 1 or 2 ? Bench note: the answer is the label of the chosen record.
Response: 1
(1: 118 nM, 2: 262 nM)

I: CCOc1ccc([C@H]2CCN(Cc3nc4ncccc4n3C)C[C@H]2C)cc1 (relative stereo)
II: CC(C)Oc1ccc([C@H]2CCN(Cc3nc4cnccc4n3C)C[C@H]2C)c(F)c1 (single isomer, unassigned) [compound 219]
Query: Pick one: I or II . Which has the bigger EC50 number? Bench note: the answer is the label of the chosen record.
Response: I

====

assaySystem: mGluR2 receptor (metabotropic glutamate receptor 2) (Homo sapiens, UniProt Q14416)
Construct: expressed in transfected cells
measurementDescription: mGluR2 Potentiator Screen, FLIPR, EC10-EC20 glutamate challenge
Assay type: cell-based
Protocol: Procedure for mGluR2 Potentiator Screen NLB methods EC10-EC20 Challenge Cell Culture and Plating: Cells used for this screen are HEK cells stably transfected with the mGluR2 receptor (metabotropic glutamate receptor 2) and the Gα15 G protein. […] Results are analyzed by dividing the peak fluorescent value of the FLIPR response by the […] to achieve a ratio response. The ratios are then analyzed by curve fitting programs. […]
parameter: EC50 (nM)

Past entries and their recorded results:
compound | EC50, nM
Cn1c(CN2CCC(c3ccc(C(F)(F)F)cc3)CC2)nc2cnccc21 [compound 47] | 168
Cn1c(CN2CCC(c3cc(C(F)(F)F)ccc3F)CC2)nc2ncccc21 [compound 58] | 5950
C[C@@H]1CN(Cc2nc3cnccc3n2C)CC[C@@H]1c1ccc2c(c1)CCCC2 (relative stereo) [compound 190] | 573
Cc1cc(F)ccc1C1CCN(Cc2nc3ncccc3n2C)CC1 [compound 69] | 353

1: C[C@@H]1CN(Cc2nc3ncccc3n2C)CC[C@@H]1c1ccc(C(F)(F)F)c(F)c1 (relative stereo) [compound 147]
2: Cn1c(CN2CCC(c3ccc(F)c(Cl)c3)CC2)nc2ncccc21 [compound 101]
3: Cn1c(CN2CCC(c3cc(F)ccc3F)CC2)nc2ncccc21 [compound 74]
Query: Sort the compounds on EC50; start with the lowest figure. # respond with the labels, arranged in the requested order
Response: 1, 2, 3
(1: 41.3 nM, 2: 313 nM, 3: 782 nM)

====

assaySystem: mGluR2 receptor (metabotropic glutamate receptor 2) (Homo sapiens, UniProt Q14416)
Construct: expressed in transfected cells
measurementDescription: mGluR2 Potentiator Screen, FLIPR, EC10-EC20 glutamate challenge
Format: cell-based
pEC50: −log10 of the molar value.
parameter: pEC50

Past entries and their recorded results:
molecule | assaySystem | reported
C[C@@H]1CN(Cc2nc3cnccc3n2C)CC[C@@H]1c1ccc(C(F)(F)F)cc1Cl (relative stereo) [compound 152] | mGluR2 receptor (metabotropic glutamate receptor 2) (Homo sapiens, UniProt Q14416) | 7.18
CC(C)Oc1ccc([C@H]2CCN(Cc3nc4ncccc4n3C)C[C@H]2C)cc1Cl (relative stereo) | mGluR2 receptor (metabotropic glutamate receptor 2) (Homo sapiens, UniProt Q14416) | 6.30
CC(C)Oc1cc(F)ccc1[C@H]1CCN(Cc2nc3ncccc3n2C)C[C@H]1C (relative stereo) | mGluR2 receptor (metabotropic glutamate receptor 2) (Homo sapiens, UniProt Q14416) | 6.21
CC1CN(Cc2nc3ncccc3n2C)CCC1c1ccccc1F (centres unmarked) | mGluR2 receptor (metabotropic glutamate receptor 2) (Homo sapiens, UniProt Q14416) | 6.52
C[C@@H]1CN(Cc2nc3cnccc3n2C)CC[C@@H]1c1ccc(OC(F)F)cc1F (relative stereo) | mGluR2 receptor (metabotropic glutamate receptor 2) (Homo sapiens, UniProt Q14416) | 6.91
Cn1c(CN2CCC(c3ccc(Cl)c(F)c3)CC2)nc2cccnc21 | mGluR2 receptor (metabotropic glutamate receptor 2) (Homo sapiens, UniProt Q14416) | 6.42
C[C@@H]1CN(Cc2nc3cnccc3n2C)CC[C@@H]1c1ccc(F)c(C(F)(F)F)c1 (relative stereo) | mGluR2 receptor (metabotropic glutamate receptor 2) (Homo sapiens, UniProt Q14416) | 6.75
C[C@@H]1CN(Cc2nc3cnccc3n2C)CC[C@@H]1c1ccccc1F (single isomer, unassigned) [compound 73] | mGluR2 receptor (metabotropic glutamate receptor 2) (Homo sapiens, UniProt Q14416) | 6.62

1: Cn1c(CN2CCC(c3ccc(F)c(Cl)c3)CC2)nc2cccnc21
2: C[C@@H]1CN(Cc2nc3ncccc3n2C)CC[C@@H]1c1ccc(C(F)(F)F)cc1 (single isomer, unassigned) [compound 118]
Query: Just tell me: smaller pEC50 value, 1 or 2 ? Bench note: the answer is the label of the chosen record.
Response: 1
(1: 6.44, 2: 7.48)

A: Cn1c(CN2CCC(F)(c3ccc(C(F)(F)F)cc3)CC2)nc2ncccc21
B: C[C@@H]1CN(Cc2nc3cnccc3n2C)CC[C@@H]1c1ccc(F)cc1F (relative stereo)
Query: Just tell me: smaller pEC50 value, A or B ? Bench note: the answer is the label of the chosen record.
Response: B
